# target.or.test.system: baNadD (Bacillus anthracis)
# assay.summary: biochemical
# Type: biochemical
Kindly supply the reported […]. anthracis values for the records listed here.
Please state the figure in %; there is no need to write the unit.

Input line: Suppose we examine the molecule `CSc1cccc(NS(=O)(=O)c2ccc(F)cc2)c1` ; what […]. anthracis value has been reported?
Output line: 0

Input line: Suppose we examine the molecule `O=C(O)c1cc(/N=C/c2ccc3c(c2)OCO3)ccc1O` ; what […]. anthracis value has been reported?
Output line: 0

Input line: Suppose we examine the molecule `CN1CCN(C(=O)c2ccccc2C(=O)O)CC1` ; what […]. anthracis value has been reported?
Output line: 0

Input line: Suppose we examine the molecule `O=c1[nH]c2ccc(NC(=S)Nc3ccccc3)cc2[nH]1` ; what […]. anthracis value has been reported?
Output line: 0

Input line: Suppose we examine the molecule `Cc1ccc(C(=O)Nc2nc3ccc(Br)cc3s2)o1` ; what […]. anthracis value has been reported?
Output line: 0

Input line: Suppose we examine the molecule `NS(=O)(=O)c1ccc(CCNC(=S)Nc2ccc(S(N)(=O)=O)cc2)cc1` ; what […]. anthracis value has been reported?
Output line: 0

Input line: Suppose we examine the molecule `NS(=O)(=O)c1ccc(NCc2cccc(Cl)c2Cl)cc1` ; what […]. anthracis value has been reported?
Output line: 0

Input line: Suppose we examine the molecule `Nc1nc(-c2ccc(Cl)c([N+](=O)[O-])c2)n[nH]1` ; what […]. anthracis value has been reported?
Output line: 0

Input line: Suppose we examine the molecule `O=C1C/C(=C/NCCc2ccc(O)cc2)C(=O)N1` ; what […]. anthracis value has been reported?
Output line: 10

Input line: Suppose we examine the molecule `CSc1nc2nc(N)nc(N)c2s1` ; what […]. anthracis value has been reported?
Output line: 0

Input line: Suppose we examine the molecule `O=C(CNS(=O)(=O)c1ccc(Br)s1)NCCC1=CCCCC1` ; what […]. anthracis value has been reported?
Output line: 4

Input line: Suppose we examine the molecule `O=C(O)c1nccnc1C(=O)Nc1ccc(Br)cc1` ; what […]. anthracis value has been reported?
Output line: 4

Input line: Suppose we examine the molecule `CC(=O)NS(=O)(=O)c1ccc(/N=C2\C(=O)Nc3ccccc32)cc1` ; what […]. anthracis value has been reported?
Output line: 0

Input line: Suppose we examine the molecule `Cc1ccc(S(=O)(=O)/N=C(\N)c2ccc(F)cc2)cc1` ; what […]. anthracis value has been reported?
Output line: 0

Input line: Suppose we examine the molecule Cc1ccc(C2C(C#N)=C(N)Oc3ncnc(O)c32)cc1 (centres unmarked) ; what […]. anthracis value has been reported?
Output line: 0

Input line: Suppose we examine the molecule `O=S(=O)(N/N=C/c1cccc(OC2CSC2)c1)c1ccccc1` ; what […]. anthracis value has been reported?
Output line: 0

Input line: Suppose we examine the molecule `Cc1cc(S(=O)(=O)Nc2cccc(C(=O)O)c2)ccc1Cl` ; what […]. anthracis value has been reported?
Output line: 0

Input line: Suppose we examine the molecule `COc1ccccc1OCc1nc(-c2ccc(Cl)cc2Cl)no1` ; what […]. anthracis value has been reported?
Output line: 1

Input line: Suppose we examine the molecule `O=C(N/N=C/c1ccc(Br)cc1)c1[nH]ncc1Br` ; what […]. anthracis value has been reported?
Output line: 0

Input line: Suppose we examine the molecule `Oc1c(Cl)cc(Cl)cc1/C=N/c1nc[nH]n1` ; what […]. anthracis value has been reported?
Output line: 0

----------
# target.or.test.system: ecNadD (Escherichia coli (strain K12), UniProt P0A752)
# assay.summary: biochemical
# Format: biochemical
readout.name: […]. coli (%)
Please state the figure in %; there is no need to write the unit.

Input line: Suppose we examine the compound Cc1ccc(NS(=O)(=O)c2coc(C(N)=O)c2)cc1F [compound 243] ; what […]. coli value has been reported?
Output line: 0

Input line: Suppose we examine the compound O=C(O)CCNc1ccc(Br)cc1C(=O)O [compound 087] ; what […]. coli value has been reported?
Output line: 11

Input line: Suppose we examine the compound Cc1ccc(SCc2cc(=O)n3ncnc3[nH]2)cc1 [compound 231] ; what […]. coli value has been reported?
Output line: 0

Input line: Suppose we examine the compound NS(=O)(=O)c1ccc(NC(=S)NCc2ccccc2)cc1 [compound 085] ; what […]. coli value has been reported?
Output line: 11

Input line: Suppose we examine the compound Cc1ccc2nc(NC(=S)NC(=O)c3cccs3)sc2c1 [compound 155] ; what […]. coli value has been reported?
Output line: 5

Input line: Suppose we examine the compound O=C(CSc1n[nH]c(=O)[nH]c1=O)N/N=C\c1ccc(Br)cc1 [compound 189] ; what […]. coli value has been reported?
Output line: 1

Input line: Suppose we examine the compound CCOc1ccc(S(=O)(=O)Nc2cccnc2)cc1 [compound 126] ; what […]. coli value has been reported?
Output line: 7

Input line: Suppose we examine the compound O=c1[nH]c(SCc2nc3ccccc3[nH]2)nc2ccccc12 [compound 026] ; what […]. coli value has been reported?
Output line: 23

Input line: Suppose we examine the compound COC(=O)c1sc(NC(=O)/C=C/C(=O)O)nc1C [compound 009] ; what […]. coli value has been reported?
Output line: 45

Input line: Suppose we examine the compound O=C(CSc1nc2ccccc2c(=O)[nH]1)NCc1ccco1 [compound 167] ; what […]. coli value has been reported?
Output line: 4

----------
# target.or.test.system: baNadD (Bacillus anthracis)
# assay.summary: biochemical
# Assay type: biochemical
Rule: […]. anthracis below 1% gives Satisfied, anything at or above gives Not satisfied.

Input line: Could you please tell me whether […]. anthracis recorded for `COc1ccc(-c2noc(COc3ccc(Cl)cc3Cl)n2)cc1` is less than 1%?
Output line: Not satisfied

Input line: Could you please tell me whether […]. anthracis recorded for `Cc1ccc(OCC(=O)Nc2nnc[nH]2)c(Br)c1` is less than 1%?
Output line: Not satisfied

Input line: Could you please tell me whether […]. anthracis recorded for `O=C(CSc1ccccc1)Nc1cc(C(=O)O)cc(C(=O)O)c1` is less than 1%?
Output line: Satisfied

Input line: Could you please tell me whether […]. anthracis recorded for `O=C(O)CCC(=O)OC/C=C/c1ccccc1` is less than 1%?
Output line: Not satisfied

Input line: Could you please tell me whether […]. anthracis recorded for O=C(O)CN1C(=O)CC(Cc2ccc(Cl)cc2)C1=O (stereo not drawn) is less than 1%?
Output line: Satisfied

Input line: Could you please tell me whether […]. anthracis recorded for O=C(NCc1cccs1)C1CC(c2cccc(Br)c2)=NO1 (stereo not drawn) is less than 1%?
Output line: Satisfied

Input line: Could you please tell me whether […]. anthracis recorded for `O=C(O)c1ccc(/C=N/NC(=O)c2cc3cc(Br)ccc3o2)cc1` is less than 1%?
Output line: Not satisfied

Input line: Could you please tell me whether […]. anthracis recorded for `NC(=S)NNC(=O)c1ccccc1C(=O)O` is less than 1%?
Output line: Not satisfied

----------
# target.or.test.system: ecNadD (Escherichia coli (strain K12))
# assay.summary: biochemical
# Assay type: biochemical
readout.name: […]. coli (%)
Please state the figure in %; there is no need to write the unit.

Input line: Suppose we examine the molecule O=C(O)CC(NC(=O)OCc1ccccc1)c1ccccc1 (centres unmarked) [compound 261] ; what […]. coli value has been reported?
Output line: 0

Input line: Suppose we examine the molecule O=C(O)c1cccc(NCN2C(=O)c3ccccc3C2=O)c1 [compound 027] ; what […]. coli value has been reported?
Output line: 23

Input line: Suppose we examine the molecule Nc1nn(S(=O)(=O)c2ccccc2)cc1-c1ccc(Cl)cc1 [compound 237] ; what […]. coli value has been reported?
Output line: 0

Input line: Suppose we examine the molecule O=C(O)c1ccc(OCOc2ccc(C(=O)O)c(C(=O)O)c2)cc1C(=O)O [compound 181] ; what […]. coli value has been reported?
Output line: 3

Input line: Suppose we examine the molecule NS(=O)(=O)c1ccc(/N=C/c2ccc(Cl)cc2Cl)cc1 [compound 118] ; what […]. coli value has been reported?
Output line: 8

----------
# target.or.test.system: baNadD (Bacillus anthracis, UniProt C3L5T6)
# Sequence (C3L5T6 whole entry, looked up): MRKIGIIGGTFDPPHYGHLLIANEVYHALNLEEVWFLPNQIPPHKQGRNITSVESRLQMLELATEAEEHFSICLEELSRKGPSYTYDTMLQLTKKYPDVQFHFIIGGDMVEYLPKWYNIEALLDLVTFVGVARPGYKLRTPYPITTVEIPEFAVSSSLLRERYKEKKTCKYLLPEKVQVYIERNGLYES
# assay.summary: biochemical
# Assay type: biochemical
Kindly supply the reported […]. anthracis values for the records listed here.
Please state the figure in %; there is no need to write the unit.

Input line: Short answer please: […]. anthracis, baNadD (Bacillus anthracis, UniProt C3L5T6), entry `N=C(N)N/N=C/c1ccc([N+](=O)[O-])cc1`
Output line: 0

Input line: Short answer please: […]. anthracis, baNadD (Bacillus anthracis, UniProt C3L5T6), entry Nc1nc(SCC(=O)NCC2CCCO2)n[nH]1 (centres unmarked)
Output line: 0

Input line: Short answer please: […]. anthracis, baNadD (Bacillus anthracis, UniProt C3L5T6), entry `NS(=O)(=O)c1ccc(CCNC(=O)COc2ccc(Cl)cc2Cl)cc1`
Output line: 0

Input line: Short answer please: […]. anthracis, baNadD (Bacillus anthracis, UniProt C3L5T6), entry `COC(=O)c1ccc(NC(=O)CNc2ccc(C(=O)O)cc2)cc1`
Output line: 0

Input line: Short answer please: […]. anthracis, baNadD (Bacillus anthracis, UniProt C3L5T6), entry `O=C(O)c1cc(NC(=O)c2ccc(Cl)cc2Cl)cc(C(=O)O)c1`
Output line: 0

Input line: Short answer please: […]. anthracis, baNadD (Bacillus anthracis, UniProt C3L5T6), entry `O=C(O)c1cccc(COc2ccc(CO)cc2Cl)c1`
Output line: 0

Input line: Short answer please: […]. anthracis, baNadD (Bacillus anthracis, UniProt C3L5T6), entry `Cc1ccc([N+](=O)[O-])cc1NS(=O)(=O)c1ccc(F)cc1`
Output line: 0

Input line: Short answer please: […]. anthracis, baNadD (Bacillus anthracis, UniProt C3L5T6), entry Cc1ccccc1N1CC(C(=O)O)CC1=O (centres unmarked)
Output line: 16

Input line: Short answer please: […]. anthracis, baNadD (Bacillus anthracis, UniProt C3L5T6), entry `Cc1ccc(-c2nnc(SCC(=O)O)o2)cc1`
Output line: 25

Input line: Short answer please: […]. anthracis, baNadD (Bacillus anthracis, UniProt C3L5T6), entry `CC(=O)Nc1ccc(/N=C/c2ccc([N+](=O)[O-])cc2)cc1`
Output line: 0

Input line: Short answer please: […]. anthracis, baNadD (Bacillus anthracis, UniProt C3L5T6), entry `N/C(=N\OCC(=O)Nc1ccc([NH2+][O-])cc1)c1nonc1N`
Output line: 0

Input line: Short answer please: […]. anthracis, baNadD (Bacillus anthracis, UniProt C3L5T6), entry O=C(O)[C@@H]1CSC(c2ccc(Cl)cc2Cl)N1 (some centres unmarked)
Output line: 39

Input line: Short answer please: […]. anthracis, baNadD (Bacillus anthracis, UniProt C3L5T6), entry `O=C(NCCc1nc2ccccc2[nH]1)c1cccs1`
Output line: 0

Input line: Short answer please: […]. anthracis, baNadD (Bacillus anthracis, UniProt C3L5T6), entry `O=C(CSc1n[nH]c(=O)[nH]c1=O)N/N=C\c1ccc(Br)cc1`
Output line: 0

Input line: Short answer please: […]. anthracis, baNadD (Bacillus anthracis, UniProt C3L5T6), entry `Cc1nc(N)nc(O)c1Oc1ccccc1`
Output line: 6

Input line: Short answer please: […]. anthracis, baNadD (Bacillus anthracis, UniProt C3L5T6), entry O=C(O)CCC(C(=O)O)N1C(=O)c2cc(Cl)c(Cl)cc2C1=O (centres unmarked)
Output line: 0

Input line: Short answer please: […]. anthracis, baNadD (Bacillus anthracis, UniProt C3L5T6), entry `O=[N+]([O-])c1cc2c(cc1/C=N/Nc1nnn[nH]1)OCO2`
Output line: 81

Input line: Short answer please: […]. anthracis, baNadD (Bacillus anthracis, UniProt C3L5T6), entry `Cn1c(SCC(N)=O)nnc1-c1ccc(Br)cc1`
Output line: 0

Input line: Short answer please: […]. anthracis, baNadD (Bacillus anthracis, UniProt C3L5T6), entry `NS(=O)(=O)c1ccc(NC(=O)c2cc3cc(Br)ccc3oc2=O)cc1`
Output line: 38

Input line: Short answer please: […]. anthracis, baNadD (Bacillus anthracis, UniProt C3L5T6), entry `O=[N+]([O-])c1ccc(/C=N\NS(=O)(=O)c2ccc(Cl)cc2)o1`
Output line: 28
